# TARGET DESC: Fibroblast growth factor receptor 4 (Homo sapiens)
# Sequence (P22455 whole entry): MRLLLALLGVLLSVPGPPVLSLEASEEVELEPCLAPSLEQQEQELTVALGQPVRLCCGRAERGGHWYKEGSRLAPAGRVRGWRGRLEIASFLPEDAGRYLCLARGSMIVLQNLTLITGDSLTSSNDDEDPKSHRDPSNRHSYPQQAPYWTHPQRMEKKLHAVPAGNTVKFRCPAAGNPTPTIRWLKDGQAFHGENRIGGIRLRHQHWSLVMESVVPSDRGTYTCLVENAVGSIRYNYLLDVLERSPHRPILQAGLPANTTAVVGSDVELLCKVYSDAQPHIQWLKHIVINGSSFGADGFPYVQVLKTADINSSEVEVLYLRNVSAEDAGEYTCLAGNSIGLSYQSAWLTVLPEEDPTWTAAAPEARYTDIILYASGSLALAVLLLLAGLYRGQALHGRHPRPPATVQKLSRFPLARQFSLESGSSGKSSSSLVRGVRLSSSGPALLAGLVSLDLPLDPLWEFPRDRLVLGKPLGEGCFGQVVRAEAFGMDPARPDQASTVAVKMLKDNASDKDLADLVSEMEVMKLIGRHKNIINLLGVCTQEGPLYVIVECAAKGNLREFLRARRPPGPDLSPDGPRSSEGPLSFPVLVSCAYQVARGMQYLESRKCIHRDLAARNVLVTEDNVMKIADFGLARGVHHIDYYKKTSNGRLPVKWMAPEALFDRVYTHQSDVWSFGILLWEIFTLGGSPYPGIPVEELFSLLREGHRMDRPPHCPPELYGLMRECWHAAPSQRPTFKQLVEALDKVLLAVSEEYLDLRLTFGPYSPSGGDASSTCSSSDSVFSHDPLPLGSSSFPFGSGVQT
QUANTITY NAME: pIC50
Units for pIC50: none; it is -log10 of a concentration expressed in mol/L.

**Q:** Under Fibroblast growth factor receptor 4 (Homo sapiens): pIC50 value of CC(C)Oc1cc(NC(=O)N2CCCc3cc(CN(C)C(=O)CO)c(C=O)nc32)ncc1C#N ?
**A:** 9.52
